target: HLA-A*0201 on mild-acid treated JY cells (human); assay: competition vs FL-reference peptide, JY cells
result-type: IC50 (µM)
Write the answer as a number in µM, unit excluded.

Check the records and state IC50 for LLDDEAGPL [HBV Pol 28-36]
69
